Record form. Attribute: IC50. Fill in for each entry.
TARGET_OF_ASSAY: T1, Human PCSK9 Alexa Fluor 647 (human, UniProt Q8NBP7 31-692, limits assumed, Alexa Fluor 647 label (site not stated))
T1 construct: Labelled tracer of the TR-FRET assay, 16 nM stock; also called proprotein convertase subtilisin/kexin type 9
ASSAY_COMMENT: TR-FRET competition: PCSK9-Alexa Fluor 647 vs LDLR ECD-Eu kryptate
Bridge positions count the residues as written; N and C are the ends. Square brackets hold non-standard residues; d marks the D form. Phe(4-CF3) = N[C@@H](Cc1ccc(C(F)(F)F)cc1)C(=O)O; NMeA = CN[C@@H](C)C(=O)O
Don't forget the unit after the number, please.

Give the measured IC50 of FVSTTFAXAEAPCG (not fully specified; N-terminal acetyl (Ac*) joined by a sulfide bond to the side chain of Cys13 (cyclic); 7: L-(N-Me)Ala; 8: L-Bip; 9: L-(N-Me)Ala; C-terminal amide (NH2), also called 1-24; Ex. No. 1-24) [Ac*-F-V-S-T-T-F-(N-Me)A-B-(N-Me)A-E-A-P-C*-G-NH2] .
6.8 nM

Given the binder {CH2CO}-FVSTT[Phe(4-CF3)][NMeA][Phe(4-CF3)][NMeA]ERPCG-NH2 (thioether N-13; SMILES CC(C)[C@@H]1NC(=O)[C@H](Cc2ccccc2)NC(=O)CSC[C@@H](C(=O)NCC(N)=O)NC(=O)[C@@H]2CCCN2C(=O)[C@H](CCCNC(=N)N)NC(=O)[C@H](CCC(=O)O)NC(=O)[C@H](C)N(C)C(=O)[C@H](Cc2ccc(C(F)(F)F)cc2)NC(=O)[C@H](C)N(C)C(=O)[C@H](Cc2ccc(C(F)(F)F)cc2)NC(=O)[C@H]([C@@H](C)O)NC(=O)[C@H]([C@@H](C)O)NC(=O)[C@H](CO)NC1=O, also called 1-11; Ex. No. 1-11) [Ac*-F-V-S-T-T-(p-CF3)F-(N-Me)A-(p-CF3)F-(N-Me)A-E-R-P-C*-G-NH2] , what is its reported IC50?
3.6 nM
